Target: T1, human NPY2R (human, UniProt P49146 1-381)
T1 sequence (looked up): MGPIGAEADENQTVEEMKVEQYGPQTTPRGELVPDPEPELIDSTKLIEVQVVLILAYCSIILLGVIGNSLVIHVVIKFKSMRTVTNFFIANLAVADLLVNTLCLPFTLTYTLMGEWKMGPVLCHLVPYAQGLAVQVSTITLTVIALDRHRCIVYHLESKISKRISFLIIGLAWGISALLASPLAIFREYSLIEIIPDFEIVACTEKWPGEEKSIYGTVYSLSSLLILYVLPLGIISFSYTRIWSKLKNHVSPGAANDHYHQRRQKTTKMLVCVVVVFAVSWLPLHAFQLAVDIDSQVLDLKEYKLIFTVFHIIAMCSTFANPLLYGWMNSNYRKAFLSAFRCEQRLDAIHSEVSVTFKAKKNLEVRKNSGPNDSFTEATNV
Assay: cell-based or functional assay
Square brackets hold non-standard residues; d marks the D form. Side chains are listed from the residue outwards. αMeF = C[C@](N)(Cc1ccccc1)C(=O)O; Iva = CC[C@](C)(N)C(=O)O; Oda = not defined here; Aib = CC(C)(N)C(=O)O
Mark each entry Met if its Agonist activity (EC50), Cre-luc reporter assay sits below 80 pM, and Not met for all others.

Reference set (5 entries):
Me-Y[Aib]EGT[αMeF]TSDK([Gly-Gly-Gly-Gly-Oda])AI[Aib]LDKQRQ[Iva]EFVRHLLNK[Aib]TRQRY-NH2 (reading uncertain; also: printed as Me-Tyr-Aib-Glu-Gly-Thr-αMePhe-Thr-Ser-Asp-Lys(-Gly-Gly-Gly-Gly-Oda)-Ala-Ile-Aib-Leu-Asp-Lys-Gln-Arg-Gln-Iva-Glu-Phe-Val-Arg-His-Leu-Leu-Asn-Lys-Aib-Thr-Arg-Gln-Arg-Tyr-NH2)    Not met
Me-Y[Aib]EGT[αMeF]TSDK([Gly-Gly-Gly-Gly-Oda])SK[Aib]LDKQRQ[Iva]EFVRHLLNK[Aib]TRQRY-NH2 (reading uncertain; also: printed as Me-Tyr-Aib-Glu-Gly-Thr-αMePhe-Thr-Ser-Asp-Lys(-Gly-Gly-Gly-Gly-Oda)-Ser-Lys-Aib-Leu-Asp-Lys-Gln-Arg-Gln-Iva-Glu-Phe-Val-Arg-His-Leu-Leu-Asn-Lys-Aib-Thr-Arg-Gln-Arg-Tyr-NH2)    Not met
H-Y[Aib]EGT[αMeF]TSDK([Gly-Gly-Gly-Gly-Pal])SI[Aib]LEKQRQ[Iva]EFVRHLLNK[Aib]TRQRY-NH2    Met
H-Y[Aib]EGT[αMeF]TSDK([Gly-Gly-Gly-Gly-Oda])SK[Aib]LDKQRQ[Iva]EFVRHLLNK[Aib]TRQRY-NH2 (reading uncertain; also: printed as H-Tyr-Aib-Glu-Gly-Thr-αMePhe-Thr-Ser-Asp-Lys(-Gly-Gly-Gly-Gly-Oda)-Ser-Lys-Aib-Leu-Asp-Lys-Gln-Arg-Gln-Iva-Glu-Phe-Val-Arg-His-Leu-Leu-Asn-Lys-Aib-Thr-Arg-Gln-Arg-Tyr-NH2)    Not met
Me-Y[Aib]EGT[αMeF]TSDK([Gly-Gly-Gly-Gly-Pal])AI[Aib]LDKQRQ[Iva]EFVRHLLNK[Aib]TRQRY-NH2    Not met

Input line: Below 80 pM on Agonist activity (EC50), Cre-luc reporter assay? Entry Me-Y[Aib]EGT[αMeF]TSDK([Gly-Gly-Gly-Gly-Pal])[Aib]I[Aib]LDKQAQ[Iva]EFVRHLLNK[Aib]TRQRY-NH2
Output line: Met

Input line: Quick check: does H-Y[Aib]EGT[αMeF]TSDK([Gly-Gly-Gly-Gly-Pal])[Aib]I[Aib]LDKQAQ[Iva]EFVRHLLNK[Aib]TRQRY-NH2 have Agonist activity (EC50), Cre-luc reporter assay under 80 pM?
Output line: Met

Input line: Lab note: Agonist activity (EC50), Cre-luc reporter assay threshold 80 pM. Does this binder come in strictly under it? Me-Y[Aib]EGT[αMeF]TSDK([Gly-Gly-Gly-Gly-Pal])SI[Aib]LEKQRQ[Iva]EFVRHLLNK[Aib]TRQRY-NH2
Output line: Met

Input line: Field: below-cutoff. Rule: recorded Agonist activity (EC50), Cre-luc reporter assay strictly less than 80 pM. Subject: H-Y[Aib]EGT[αMeF]TSDK([Gly-Gly-Gly-Gly-Pal])[Aib]I[Aib]LEKQRQ[Iva]EFVRHLLNK[Aib]TRQRY-NH2
Output line: Met

Input line: Record H-Y[Aib]EGT[αMeF]TSDK([Gly-Gly-Gly-Gly-Pal])SK[Aib]LDKQRQ[Iva]EFVRHLLNK[Aib]TRQRY-NH2 : is its Agonist activity (EC50), Cre-luc reporter assay strictly below 80 pM?
Output line: Met

Input line: Could you please tell me whether Agonist activity (EC50), Cre-luc reporter assay recorded for Me-Y[Aib]EGT[αMeF]TSDK([Gly-Gly-Gly-Gly-Pal])AI[Aib]LEKQRQ[Iva]EFVRHLLNK[Aib]TRQRY-NH2 is less than 80 pM?
Output line: Met

Input line: Bench note: check whether Me-Y[Aib]EGT[αMeF]TSDK([Gly-Gly-Gly-Gly-Oda])[Aib]I[Aib]LEKQRQ[Iva]EFVRHLLNK[Aib]TRQRY-NH2 (reading uncertain; also: printed as Me-Tyr-Aib-Glu-Gly-Thr-αMePhe-Thr-Ser-Asp-Lys(-Gly-Gly-Gly-Gly-Oda)-Aib-Ile-Aib-Leu-Glu-Lys-Gln-Arg-Gln-Iva-Glu-Phe-Val-Arg-His-Leu-Leu-Asn-Lys-Aib-Thr-Arg-Gln-Arg-Tyr-NH2) shows Agonist activity (EC50), Cre-luc reporter assay below 80 pM
Output line: Not met
